Attribution: ChEMBL document CHEMBL1201862

Tested on: SR
Assay: NCI tumour cell line growth inhibition, 48 h
Calls of active or inactive are those of the source. Rule as the data show it: active = GI50 up to about 1.1 µM and inactive = higher.
Select the matching outcome among 1 (active), 0 (inactive)

For orientation, consider the following solved cases.
CCOC(=O)N(C)C(=C(F)F)C(F)(F)F	0
CCCCN(CCCC)CCC(O)c1cc2c(Cl)cc(Cl)cc2c2cc(C(F)(F)F)ccc12 (centres undefined)	0

Ask: What did this assay record as the result for `COc1cccc(-c2nc(-c3cnccn3)n(COCCO)n2)c1` ?
Result: 0

Ask: What did this assay record as the result for CCc1cc2c(c3c1CCCC3)CC1(Cc3ccc(C(=O)OC)cc3C1)C2 (centres undefined) ?
Result: 0

Ask: What did this assay record as the result for `CN(C)CCn1c(=O)c2ccc3c4c(nn3CCN(C)C)c3cc(N)ccc3n(c1=O)c24` ?
Result: 1

Ask: What did this assay record as the result for CN(C)c1cccc2c1C(=O)C=CC21c2ccc(N(C)C)c3c(N(C)C)ccc(c23)C(c2ccccc2)C1c1ccccc1 (centres undefined) ?
Result: 0

Ask: What did this assay record as the result for O=C(C/C(=N\NC(=O)C[n+]1ccccc1)C(=O)Nc1nc2ccc([N+](=O)[O-])cc2s1)CC(c1ccccc1)c1c(O)c2ccccc2oc1=O (centres undefined) ?
Result: 0

Ask: What did this assay record as the result for `O=C(Nc1nc(C23CC4CC(CC(C4)C2)C3)cs1)c1cc2ccccc2oc1=O` ?
Result: 0

Ask: What did this assay record as the result for C/C=C1/CN2CCC34c5ccccc5N5C(=O)C(C6CC78c9ccccc9N9C(=O)C=CC(C%10CC7N6C/C%10=C/C)C98)=CC(C1CC23)C54 (centres undefined) ?
Result: 1

====

Please provide measured GI50 for the entries that follow.
System: NCI-H460
Assay: NCI tumour cell line growth inhibition, 48 h
The source made the active and inactive calls. Rule as the data show it: active = GI50 up to about 1.1 µM and inactive = higher.

Examples with their reported GI50 follow.
Cc1cc(S(=O)(=O)[N-]/C(=N/S(=O)(=O)c2ccc(Cl)cc2)[n+]2ccc(N(C)C)cc2)c(S)cc1Cl	48.3 µM (inactive)
COc1cc2nc(-c3cccs3)nc(Nc3ccccc3C(=O)NN)c2cc1OC	> 100 µM (inactive)
COc1ccc2c(c1)CC[C@@H]1C2CC[C@](C)(C#N)C1CC#N (stereo partly drawn)	> 100 µM (inactive)
O=C(CCC(=O)C1CCC/C1=N/O)Nc1ccc(Cl)cc1 (stereo not drawn)	> 100 µM (inactive)
CCOC(=O)N1C2C=C(C)C(C3C(C)C(=O)N31)N(C(=O)c1ccccc1)O2 (stereo not drawn)	> 100 µM (inactive)

Take each entry in turn and give its GI50.
1. COc1ccc2c(-c3csc(-c4c[nH]c5ccc(Br)cc45)n3)c[nH]c2c1
2. CN(C)c1cccc2c1C(=O)C=CC21c2ccc(N(C)C)c3c(N(C)C)ccc(c23)C(c2ccccc2)C1c1ccccc1 (stereo not drawn)
3. O=C(Nc1ccccc1Cl)c1ccc([N+](=O)[O-])cc1

Result:
1. 23.2 µM (inactive)
2. 24 µM (inactive)
3. > 100 µM (inactive)

====

Test system: RPMI-8226
Assay: NCI tumour cell line growth inhibition, 48 h
Active and inactive are the calls of the source. No stated cut-off is given here; in the data, active = GI50 up to about 1.1 µM and inactive = higher.
Select the matching outcome among active, inactive

For orientation, consider the following solved cases.
CC1=C2O[B-](c3ccccc3)(c3ccccc3)[O+]=C2C=CN1	inactive
CCOC(=O)N1C2C=C(C)C(C3C(C)C(=O)N31)N(C(=O)c1ccccc1)O2 (stereo not given)	inactive
CC(=O)Oc1ccc(N2C(=O)C3c4[nH]c5ccccc5c4C4CCC(C(C)(C)C)CC4C3C2=O)cc1 (stereo not given)	inactive
CCOC(=O)/C=C(/C(=O)OCC)n1cc(C)c(=O)n(Cc2cn(COCCOC(C)=O)nn2)c1=O	inactive

Now consider the entry below.
Ask: What did this assay record as the result for `N#C/C(=C\c1ccc([N+](=O)[O-])o1)c1n[nH]c(Cc2ccccc2)n1` ?
Result: active

====

HCT-15: reported GI50 for various molecules.
Give bare numbers, in µM.

Cn1c(=O)c2c(ncn2CN2CCN(Cn3cnc4c3c(=O)n(C)c(=O)n4C)CC2)n(C)c1=O	27.6
CC(=O)O[C@H]1CC[C@@]2(C)C(=CC[C@H]3[C@@H]4C/C(=C\c5ccncc5)[C@H](OC(C)=O)[C@@]4(C)CC[C@@H]32)C1	3.45
CCOC(=O)OC1C(Br)C2CCC1(C)C2(C)C (configuration not stated)	13.7
CSc1cccc(NC(=O)OC2CCCCCCCCCCC2)c1	28.8
O=C(c1ccccc1)c1c(C(F)(F)F)[n+]([O-])c2cc(Cl)c(Cl)cc2[n+]1[O-]	0.535
C/C(Cl)=N\OC(=O)Nc1ccc([N+](=O)[O-])cc1	14.1

Take each entry in turn and give its GI50.
1. COc1c(O)cc2c(c1O)C(=O)/C(=C/c1ccc(O)cc1)CO2
2. O=C(CCN(C(=O)O)S(=O)(=O)c1ccc(NC(=O)c2ccccc2)cc1)NC1CCCCC1
3. O=c1/c(=C/c2ccccc2[N+](=O)[O-])sc2nc3ccccc3n12

Result:
[14.8, 47.6, 17]

====

Test system: IGROV-1
Test: NCI tumour cell line growth inhibition, 48 h
Calls of active or inactive are those of the source. Cut-off read from the data, not from the text of the source: active = GI50 up to about 1.1 µM and inactive = higher.
Select the matching outcome among t = active, f = inactive

Ask: What did this assay record as the result for `O=C(CSc1nc2ccc(I)cc2c(=O)n1Cc1ccccc1)NNC(=S)Nc1ccccc1` ?
Result: f

Ask: What did this assay record as the result for `COc1cc2c(c(OC)c1OC)-c1ccc(SC)cc1C(=O)CC2` ?
Result: t

Ask: What did this assay record as the result for `COc1cc(C[C@@H](C)N)cc(OC)c1` ?
Result: f

Ask: What did this assay record as the result for CC(=O)Oc1ccc(N2C(=O)C3c4[nH]c5ccccc5c4C4CCC(C(C)(C)C)CC4C3C2=O)cc1 (stereo unspecified) ?
Result: f

Ask: What did this assay record as the result for `CCN1C(NCCO)=NS(=O)(=O)c2ccccc21` ?
Result: f

Ask: What did this assay record as the result for `Cc1c([C@H](C)[C@@H]2NC[C@@H](C)C[C@H]2O)ccc2c1C[C@H]1[C@H]2CC=C2C[C@@H](O)CC[C@@]21C` ?
Result: f

Ask: What did this assay record as the result for `CC(=O)/C=C1/C(=O)C(CC(C)C)=C1CC(C)C` ?
Result: f

Ask: What did this assay record as the result for Oc1nc2cc(Cl)ccc2nc1/C(=N\Nc1ccccc1)C(O)c1ccc2c(c1)OCO2 (stereo unspecified) ?
Result: f

Ask: What did this assay record as the result for `CCc1cc2c(O)c(c1)Cc1cc(CC)cc(c1O)Cc1cc(CC)cc(c1O)Cc1cc(CC)cc(c1O)Cc1cc(CC)cc(c1O)Cc1cc(CC)cc(c1O)Cc1cc(CC)cc(c1O)C2` ?
Result: f

Ask: What did this assay record as the result for `O=c1/c(=C/c2ccccc2[N+](=O)[O-])sc2nc3ccccc3n12` ?
Result: f

Ask: What did this assay record as the result for `N#C/C(C(=O)Nc1ccc(Cl)cc1)=C(/N)N1CCCC1` ?
Result: f

====

Please provide measured GI50 for the entries that follow.
Test system: OVCAR-5
Experiment: NCI tumour cell line growth inhibition, 48 h
Activity calls are given as the source filed them. Rule as the data show it: active = GI50 up to about 1.1 µM and inactive = higher.

Examples with their reported GI50 follow.
O=C1Nc2ccc(Br)cc2/C1=N/NC(=S)Nc1ccc(F)cc1	43.2 µM (inactive)
Cc1cc(C)c2c(c1)N[S@@](=O)S2	30.6 µM (inactive)
CCOC(=O)NC1CC2CCC1(OC)C=C2C (stereo not given)	> 100 µM (inactive)

Take each entry in turn and give its GI50.
1. O=C(CCN(C(=O)O)S(=O)(=O)c1ccc(NC(=O)c2ccccc2)cc1)NC1CCCCC1
2. COc1cc2nncc(SCc3ccc(Cl)c(Cl)c3)c2cc1OC
3. CCOc1cc(NC(C)=O)ccc1C(=O)NN1C(=O)/C(=C/c2cc(OC)c(OC)c(OC)c2)N=C1c1ccccc1

Result:
["> 100 µM (inactive)", "98.4 µM (inactive)", "> 100 µM (inactive)"]

Take each entry in turn and give its GI50.
1. COC(=O)[C@H](Cc1ccccc1)NC(=O)N(CCC#N)CCCCN(CCC#N)C(=O)N[C@@H](Cc1ccccc1)C(=O)OC
2. CC(C)(C)OC(=O)Cn1ncn(NC(=O)Cc2ccccc2)c1=O
3. CCN1CC2=C(NC(=S)NC2c2cc(OC)c(OC)c(OC)c2)/C(=C/c2cc(OC)c(OC)c(OC)c2)C1 (stereo not given)
4. Clc1cc(Cl)c2c(Cl)cc(Cl)c3c2c1N=S=N3

Result:
["> 100 µM (inactive)", "> 10 µM (inactive)", "14.4 µM (inactive)", "> 100 µM (inactive)"]

====

Please provide measured GI50 for the entries that follow.
Tested on: OVCAR-5
Assay: NCI tumour cell line growth inhibition, 48 h
The source made the active and inactive calls. Cut-off read from the data, not from the text of the source: active = GI50 up to about 1.1 µM and inactive = higher.

Examples with their reported GI50 follow.
C[C@H]1[C@H](C)CC[C@]2(C(=O)OC3OC(CO)C(O)C(O)C3O)CC[C@]3(C)C(=CC[C@@H]4[C@@]5(C)C[C@@H](O)[C@@H]6OC(=O)c7cc(O)c(O)c(O)c7-c7c(cc(O)c(O)c7O)C(=O)OC[C@]6(CO)[C@@H]5CC[C@]43C)[C@H]12 (some centres not stated)	> 67.9 µM (inactive)
O=c1[nH]c2ccsc2c(=O)n1COCc1ccccc1	> 100 µM (inactive)
NC(=O)/C=C/NC(=O)/C=N\O	> 100 µM (inactive)

Take each entry in turn and give its GI50.
1. CC(=O)c1c(-c2cccc3ccccc23)c(C#N)c(=S)n(C2OC(CO)C(O)C(O)C2O)c1C (configuration not stated)
2. COc1cc2c(c(OC)c1OC)-c1ccc(SC)cc1C(=O)CC2
3. N/C(=N\c1cccc(Cl)c1)c1ccccc1N
4. C=C1c2nc3ccccc3n2C=C(c2ccc(OC)cc2)N1c1ccc(OCCN2CCCCC2)cc1

Result:
> 100 µM (inactive)
> 100 µM (inactive)
> 100 µM (inactive)
> 74.1 µM (inactive)
